Target: SARS-CoV-2 Mac1 (Severe acute respiratory syndrome coronavirus 2)
Assay: biochemical
Settings: read-out: %inhibition
In this section we review reported inhibition at 100 µM values for a set of compounds.
# output: bare number, implied unit %

Previously resolved entries follow.
{"Compound": "Cc1c(C(C)C)c(=O)n(-c2ccccc2)n1C [Propyphenazone (4-Isopropylantipyrine)]", "Tested Target": "SARS-CoV-2 Mac1 (Severe acute respiratory syndrome coronavirus 2)", "Experimental Result": 0}
{"Compound": "CC(=O)NS(=O)(=O)c1ccc(NC(=O)c2ccccc2C(=O)O)cc1 [Phthalylsulfacetamide]", "Tested Target": "SARS-CoV-2 Mac1 (Severe acute respiratory syndrome coronavirus 2)", "Experimental Result": 6.67}
{"Compound": "O=C(N/N=C/c1ccc([N+](=O)[O-])o1)c1ccc(O)cc1 [Nifuroxazide]", "Tested Target": "SARS-CoV-2 Mac1 (Severe acute respiratory syndrome coronavirus 2)", "Experimental Result": 0.953}

Return reported inhibition at 100 µM; argument: COc1ccc(CN(C(=O)[C@@H](N)Cc2c(C)cc(C(N)=O)cc2C)[C@@H](C)c2ncc(-c3ccccc3)[nH]2)cc1C(=O)O [Eluxadoline] 5.52

Return reported inhibition at 100 µM; argument: C#Cc1cccc(Nc2ncnc3cc4c(cc23)OCCOCCOCCO4)c1 [Icotinib] 15.2

Return reported inhibition at 100 µM; argument: CNC(=O)[C@H](Cc1ccccc1)NC(=O)[C@H](CC(C)C)[C@H](CSc1cccs1)C(=O)NO [Batimastat (BB-94)] 0

Return reported inhibition at 100 µM; argument: CC(=O)Oc1ccc(C(c2ccc(OC(C)=O)cc2)c2ccccn2)cc1 [Bisacodyl] 0

Return reported inhibition at 100 µM; argument: O=C(O)C(O)C(O)C(=O)O (centres unmarked) [Choline bitartrate] 0
